Ref: ChEMBL document CHEMBL1201862

- Tested on: SNB-19
- EXPERIMENT_DESCRIPTION: NCI tumour cell line growth inhibition, 48 h
Active and inactive are the calls of the source. Rule as the data show it: active = GI50 up to about 1.1 µM and inactive = higher.
METRIC_NAME: GI50

**Q:** Given the compound "CC(=O)Nc1cc(CN2CCCCC2)c(O)c2ncccc12" , what is its reported GI50?
**A:** 39.7 µM (inactive)

**Q:** Given the compound NC(=S)N/N=C1/C(=O)N(c2ccccc2)C(=O)C1C(=O)Nc1ccccc1 (stereo not given) , what is its reported GI50?
**A:** > 100 µM (inactive)

**Q:** Given the compound NC(Cc1ccccc1)C(=O)OCN1C(=O)C2C3C=CC(C2C1=O)C1C2C(=O)N(COC(=O)C(N)Cc4ccccc4)C(=O)C2C31 (stereo not given) , what is its reported GI50?
**A:** 50.1 µM (inactive)

**Q:** Given the compound "COc1ccc(C2=NOP(c3ccccc3)(c3ccccc3)(c3ccccc3)C2)cc1" , what is its reported GI50?
**A:** 51.4 µM (inactive)

**Q:** Given the compound "Cn1c2ccccc2n2c3ncccc3c(=S)c(C#N)c12" , what is its reported GI50?
**A:** > 100 µM (inactive)

**Q:** Given the compound "CCCCCCc1cc2cc(-c3cn4c(n3)sc3ccccc34)c(=O)oc2cc1O" , what is its reported GI50?
**A:** > 100 µM (inactive)

**Q:** Given the compound CN1C(=O)N(C)C2(CCN(CC(CC3OCCO3)c3ccc(F)cc3)CC2)C1=O (stereo not given) , what is its reported GI50?
**A:** > 100 µM (inactive)

**Q:** Given the compound "Cc1ccc(C(=O)/C=C/c2ccccc2Cl)cc1" , what is its reported GI50?
**A:** 18.4 µM (inactive)

**Q:** Given the compound "CC12c3c4ccc(C=O)c3Oc3ccc(C=O)c(c31)Oc1ccc(C=O)c(c12)O4" , what is its reported GI50?
**A:** > 25 µM (inactive)

**Q:** Given the compound COc1ccc(CC2c3cc4c(cc3CCN2C)OCO4)c(C=O)c1OC (stereo not given) , what is its reported GI50?
**A:** > 100 µM (inactive)

* * *

- System: U-251
- EXPERIMENT_DESCRIPTION: NCI tumour cell line growth inhibition, 48 h
Calls of active or inactive are those of the source. Cut-off read from the data, not from the text of the source: active = GI50 up to about 1.1 µM and inactive = higher.
Pick one: TRUE for active, FALSE for inactive

**Q:** Which outcome did this test record for the molecule "COc1ccc(/N=C2\C(=N/c3ccc(OC)cc3)N(S(=O)(=O)c3ccccc3)C(=S)N2c2ccc(OC)cc2)cc1" ?
**A:** FALSE

**Q:** Which outcome did this test record for the molecule "Oc1ccccc1-c1nnc(S)n1/N=C/c1ccc(-c2ccc(Br)cc2)o1" ?
**A:** FALSE

**Q:** Which outcome did this test record for the molecule O/N=C1/C(=C/c2ccc(Br)cc2)CCCC1C(NO)c1ccc(Br)cc1 (configuration not stated) ?
**A:** FALSE

**Q:** Which outcome did this test record for the molecule "CCc1ccc2nc(-c3ccc(O)cc3)sc2c1" ?
**A:** FALSE

**Q:** Which outcome did this test record for the molecule "O=C(c1ccco1)N(C(=S)N1CCN(c2ccccn2)CC1)C1CCCCC1" ?
**A:** FALSE

**Q:** Which outcome did this test record for the molecule "CCOC(=O)[C@H]1CSC[C@@H](C(=O)OC)N1" ?
**A:** FALSE

**Q:** Which outcome did this test record for the molecule "CC(C)OP(=O)(OC(C)C)/C(F)=N/Nc1ccc([N+](=O)[O-])cc1" ?
**A:** FALSE

**Q:** Which outcome did this test record for the molecule "CC(C)(C)Cc1cc(O)ccc1O" ?
**A:** FALSE

**Q:** Which outcome did this test record for the molecule "COc1cc(C=O)c(-c2cc(OC)c(OC)cc2C=O)cc1OC" ?
**A:** FALSE

**Q:** Which outcome did this test record for the molecule "CC(=O)N1CC(C)(C)c2c1cc(C)c(O)c2C" ?
**A:** FALSE

**Q:** Which outcome did this test record for the molecule "COC(=O)/C=C1\C(=O)Nc2ccc(Br)cc21" ?
**A:** FALSE

**Q:** Which outcome did this test record for the molecule CC1SC2=NC3=C(c4ccccc4C3=O)C(c3ccccc3Cl)N2C1=O (configuration not stated) ?
**A:** FALSE

**Q:** Which outcome did this test record for the molecule "O=c1c2cc([N+](=O)[O-])ccc2n(Cc2ccccc2)n1Cc1ccccc1" ?
**A:** FALSE

**Q:** Which outcome did this test record for the molecule "CCOC(=O)CC(=O)C(=O)NN=C1NCCCN1" ?
**A:** FALSE

**Q:** Which outcome did this test record for the molecule "NC(=O)CN(CC(N)=O)C(N)=O" ?
**A:** FALSE

**Q:** Which outcome did this test record for the molecule "O=c1c2ccccc2[nH]c2ccc3c(Cl)n[nH]c3c12" ?
**A:** FALSE

**Q:** Which outcome did this test record for the molecule "Cc1ccc(-c2c(-c3ccccc3)[nH]c(C)c2C(=O)ONC(=O)c2ccccc2)cc1" ?
**A:** FALSE

**Q:** Which outcome did this test record for the molecule "CCc1ccccc1-n1c2nc(=O)n(C)c(=O)c-2nc2ccccc21" ?
**A:** FALSE

**Q:** Which outcome did this test record for the molecule CC(=O)N1c2ccccc2C2=CC3C4C(=O)N(c5ccccc5)C(=O)C4C21C1C(=O)N(c2ccccc2)C(=O)C31 (configuration not stated) ?
**A:** FALSE

**Q:** Which outcome did this test record for the molecule "CN(N=O)c1nc2c(C(N)=O)ncn2s1" ?
**A:** FALSE

**Q:** Which outcome did this test record for the molecule O=C(O)C(SC(=S)c1ccc(C(=S)SC(C(=O)O)c2ccccc2)cc1)c1ccccc1 (configuration not stated) ?
**A:** FALSE

**Q:** Which outcome did this test record for the molecule "C[C@]12CC[C@H]3[C@@H](CC=C4C[C@@H](N5CCCC5)CC[C@@]43C)[C@@H]1C/C(=C\c1ccc([N+](=O)[O-])cc1)[C@@H]2O" ?
**A:** FALSE

**Q:** Which outcome did this test record for the molecule COC1=CC(=O)OC(/C=C(C)/C=C/C2=C(C)CCCC2(C)C)C1 (configuration not stated) ?
**A:** FALSE

**Q:** Which outcome did this test record for the molecule "Nc1c(-c2ccccc2-c2c(N)[n+]([O-])c3ccccc3[n+]2[O-])[n+]([O-])c2ccccc2[n+]1[O-]" ?
**A:** FALSE

**Q:** Which outcome did this test record for the molecule "Nc1nc(NCc2ccccc2)cc(NCc2ccccc2)n1" ?
**A:** FALSE

**Q:** Which outcome did this test record for the molecule NC(CCc1nc(-c2cccc([N+](=O)[O-])c2)cs1)C(=O)O (configuration not stated) ?
**A:** FALSE

**Q:** Which outcome did this test record for the molecule CC(=O)OCC1OC(n2c(=O)n(-c3ccccc3)c(=O)c3ccccc32)C(OC(C)=O)C(OC(C)=O)C1OC(C)=O (configuration not stated) ?
**A:** FALSE

**Q:** Which outcome did this test record for the molecule "CN(Cc1ccccc1)c1nc(=[N+](C)C)ss1" ?
**A:** FALSE

**Q:** Which outcome did this test record for the molecule "CCCCNC(=S)c1ccc(OC(=O)Nc2ccc(Cl)cc2)cc1" ?
**A:** FALSE

**Q:** Which outcome did this test record for the molecule "COc1cc(Br)c(C2OCCCO2)cc1OCc1ccccc1" ?
**A:** FALSE

**Q:** Which outcome did this test record for the molecule "COc1ccc2c(c1)c[n+](C)c1c3cc(OC)c(OC)cc3ccc21" ?
**A:** FALSE

**Q:** Which outcome did this test record for the molecule COc1ccc(C(=O)C(c2ccc(OC)cc2)C2(O)C(=O)Nc3ccc([N+](=O)[O-])cc32)cc1 (configuration not stated) ?
**A:** FALSE

**Q:** Which outcome did this test record for the molecule "COc1ccc(/C=C/c2nnc(S)[nH]2)cc1" ?
**A:** FALSE

**Q:** Which outcome did this test record for the molecule "C[Si](C)(c1ccc(C(=O)O)cc1)c1ccc(C(=O)O)cc1" ?
**A:** FALSE

**Q:** Which outcome did this test record for the molecule CC(=O)OC1C=CC2CCN3C(=O)c4cc5c(cc4[C@H]1C23)OCO5 (some centres not stated) ?
**A:** FALSE

**Q:** Which outcome did this test record for the molecule "Cc1oc2c(cc(O)c3ccccc32)c2cccc1-2" ?
**A:** FALSE

**Q:** Which outcome did this test record for the molecule "Cc1c(C#N)c2ccccc2c2nc3ccccc3n12" ?
**A:** FALSE

**Q:** Which outcome did this test record for the molecule "COc1ccc(-n2c3c(c4c(CN(C)C)c(O)ccc42)C(=O)c2ccccc2C3=O)cc1" ?
**A:** FALSE

**Q:** Which outcome did this test record for the molecule "C/C(CC(=O)CCC(=O)Nc1cccc(C(F)(F)F)c1)=N\NC(=O)NN" ?
**A:** FALSE

**Q:** Which outcome did this test record for the molecule "CCN(CC)c1c(C(=O)/C=C/c2ccc(Cl)cc2)c(-c2ccccc2)nn(C)c1=O" ?
**A:** FALSE

**Q:** Which outcome did this test record for the molecule "C[C@]12CCC(=O)C=C1C[C@@H](O)[C@@H]1[C@@H]2CC[C@@]2(C)[C@H]1CC[C@]2(C)O" ?
**A:** FALSE

**Q:** Which outcome did this test record for the molecule "Oc1c(CN2CCN(c3ccccc3)CC2)cc(Br)c2cccnc12" ?
**A:** TRUE
